Tested on: Pseudomonas aeruginosa IFO 3445
Experiment: Antibacterial activity, agar-dilution MIC, organism No. 15
Assay type: cell-based
Conditions: Pseudomonas aeruginosa, IFO3445; Organism No. 15, bouillon-agar; read-out: Minimum Inhibitory Concentration
Text: Agar-dilution method was used for determination of the antibacterial activity and antifungal activity while using bouillon-agar culture medium, and the minimum inhibitory concentration of the specimen was expressed by μg/ml of the culture medium.
Measurement Type: MIC

Compound	Measurement Type	Measured Result
[C-]#[N+]C12CC3(/C=C/C(=O)OCc4ccccc4)OC3C1O2 (stereo not drawn) [Compound No. 10, benzyl β-substituted acrylate]	MIC	> 100 µg/mL
[C-]#[N+]C12CC3(/C=C/C(=O)Nc4nc5ccccc5s4)OC3C1O2 (stereo not drawn)	MIC	> 200 µg/mL
[C-]#[N+]C12CC3(/C=C/C(=O)Nc4cccc(OC)c4)OC3C1O2 (stereo not drawn)	MIC	> 200 µg/mL

Reported MIC for [C-]#[N+]C12CC3(/C=C/C(=O)Nc4ccccc4N)OC3C1O2 (stereo not drawn) : what is it?
> 200 µg/mL

Next up: [C-]#[N+]C12CC3(/C=C/C(N)=O)OC3C1O2 (stereo not drawn)
100 µg/mL

Next up: [C-]#[N+]C12CC3(/C=C/C(=O)N[C@@H](CC(=O)OCc4ccccc4)C(=O)OCc4ccccc4)OC3C1O2 (stereo partly drawn)
> 200 µg/mL

Next up: [C-]#[N+]C12CC3(/C=C/C(=O)NCc4ccccc4)OC3C1O2 (stereo not drawn)
> 100 µg/mL

Next up: [C-]#[N+]C12CC3(/C=C/C(=O)OCC(C)C)OC3C1O2 (stereo not drawn)
> 200 µg/mL

Next up: [C-]#[N+]C12CC3(/C=C/C(=O)Nc4cc(C(=O)OC)ccc4OC)OC3C1O2 (stereo not drawn)
> 200 µg/mL

----------
Entries and their log10 MIC
Tested on: Aspergillus niger IFO 6342
Experiment: Antifungal activity, agar-dilution MIC, organism No. 30
Type: cell-based
Details: Aspergillus niger, IFO6342, read-out: Minimum Inhibitory Concentration
For clarity, the numbers are log10 values of MIC expressed in µg/mL.

Some entries whose results are on file:
Compound	log10 MIC
[C-]#[N+]C12CC3(/C=C/C(=O)NCCO)OC3C1O2 (centres unmarked) [compound 68]	2.00
[C-]#[N+]C12CC3(/C=C/C(=O)Nc4nc[nH]n4)OC3C1O2 (centres unmarked) [compound 78]	2.30
[C-]#[N+]C12CC3(/C=C/C(=O)Nc4ccncc4)OC3C1O2 (centres unmarked) [compound 72]	0.80
[C-]#[N+]C12CC3(/C=C/C(=O)Nc4ccc(O)cc4)OC3C1O2 (centres unmarked) [compound 56]	1.70

Here's the next entry for you.
Reported log10 MIC for [C-]#[N+]C12CC3(/C=C/C(=O)Nc4ccc(OC)cc4)OC3C1O2 (centres unmarked) [compound 53] : what is it?
0.19

----------
Entries and their MIC
Tested on: Staphylococcus aureus Terajima
Assay: Antibacterial activity, agar-dilution MIC, organism No. 2
Type: cell-based
Conditions: Staphylococcus aureus, read-out: Minimum Inhibitory Concentration
Give a bare numeral; the unit mg/L is implied.

Some entries whose results are on file:
Compound	MIC [mg/L]
[C-]#[N+]C12CC3(/C=C/C(=O)Nc4ccncc4)OC3C1O2 (centres unmarked)	6.25
[C-]#[N+]C12CC3(/C=C/C(=O)NCCO)OC3C1O2 (centres unmarked)	25
[C-]#[N+]C12CC3(/C=C/C(=O)Nc4ccc(O)cc4)OC3C1O2 (centres unmarked)	6.25

Here's the next entry for you.
Reported MIC for [C-]#[N+]C12CC3(/C=C/C(=O)Nc4nc[nH]n4)OC3C1O2 (centres unmarked) : what is it?
200

----------
Entries and their MIC
System: Escherichia coli K12 C600 IAM 1264
Assay: Antibacterial activity, agar-dilution MIC, organism No. 6
Format: cell-based
Conditions: Escherichia coli, IAM1264; Organism No. 6, bouillon-agar; read-out: Minimum Inhibitory Concentration
From the text: Agar-dilution method was used for determination of the antibacterial activity and antifungal activity while using bouillon-agar culture medium, and the minimum inhibitory concentration of the specimen was expressed by μg/ml of the culture medium.
Give a bare numeral; the unit µg/mL is implied.

Molecule	Units Of Measure	MIC
[C-]#[N+]C12CC3(/C=C/C(=O)N4CCOCC4)OC3C1O2 (centres unmarked)	µg/mL	50
[C-]#[N+]C12CC3(/C=C/C(=O)Nc4cccc(C(=O)O)c4)OC3C1O2 (centres unmarked)	µg/mL	200
[C-]#[N+]C12CC3(/C=C/C(=O)Nc4ccccc4O)OC3C1O2 (centres unmarked)	µg/mL	12.5

Reported MIC for [C-]#[N+]C12CC3(/C=C/C(=O)Nc4ccccc4)OC3C1O2 (centres unmarked) : what is it?
6.25

----------
Tested on: Proteus morganii IFO 3848
Assay: Antibacterial activity, agar-dilution MIC, organism No. 18
Assay type: cell-based
Settings: Morganella morganii, IFO3848; Organism No. 18, bouillon-agar; read-out: Minimum Inhibitory Concentration
Measurement Type: MIC (µg/mL)
Give a bare numeral; the unit µg/mL is implied.

Some entries whose results are on file:
Molecule	Target Desc	MIC [µg/mL]
[C-]#[N+]C12CC3(/C=C/C(=O)Nc4ccc(OCCC)cc4)OC3C1O2 (stereo not drawn) [compound 73]	Proteus morganii IFO 3848	12.5
[C-]#[N+]C12CC3(/C=C/C(=O)Nc4ccc(C)cc4)OC3C1O2 (stereo not drawn) [compound 37]	Proteus morganii IFO 3848	12.5
[C-]#[N+]C12CC3(/C=C/C(=O)Nc4cccc(OC)c4)OC3C1O2 (stereo not drawn) [compound 54]	Proteus morganii IFO 3848	0.39
[C-]#[N+]C12CC3(/C=C/C(=O)Nc4ccc(C(=O)OC)cc4)OC3C1O2 (stereo not drawn) [compound 49]	Proteus morganii IFO 3848	12.5
[C-]#[N+]C12CC3(/C=C/C(=O)Nc4nc5ccccc5s4)OC3C1O2 (stereo not drawn) [compound 70]	Proteus morganii IFO 3848	6.25
[C-]#[N+]C12CC3(/C=C/C(=O)N4CCN(C)CC4)OC3C1O2 (stereo not drawn) [compound 23]	Proteus morganii IFO 3848	12.5
[C-]#[N+]C12CC3(/C=C/C(=O)Nc4ccc5c(c4)OCO5)OC3C1O2 (stereo not drawn) [compound 64]	Proteus morganii IFO 3848	6.25
[C-]#[N+]C12CC3(/C=C/C(=O)Nc4ccc(C(F)(F)F)cc4)OC3C1O2 (stereo not drawn) [compound 46]	Proteus morganii IFO 3848	1.56
[C-]#[N+]C12CC3(/C=C/C(=O)OCC(=O)c4ccccc4)OC3C1O2 (stereo not drawn) [Compound No. 3]	Proteus morganii IFO 3848	3.13
[C-]#[N+]C12CC3(/C=C/C(=O)Nc4nccs4)OC3C1O2 (stereo not drawn) [compound 65]	Proteus morganii IFO 3848	1.56

Reported MIC for [C-]#[N+]C12CC3(/C=C/C(=O)Nc4cccc([N+](=O)[O-])c4)OC3C1O2 (stereo not drawn) [compound 48] : what is it?
0.2

Next up: [C-]#[N+]C12CC3(/C=C/C(=O)Nc4ccc(C(=O)O)cc4)OC3C1O2 (stereo not drawn) [compound 51]
1.56

Next up: [C-]#[N+]C12CC3(/C=C/C(=O)Nc4cccc(Cl)c4)OC3C1O2 (stereo not drawn) [compound 41]
0.1

Next up: [C-]#[N+]C12CC3(/C=C/C(=O)Nc4ccc(Br)cc4)OC3C1O2 (stereo not drawn) [compound 44]
3.13

Next up: [C-]#[N+]C12CC3(/C=C/C(=O)Nc4ccccc4C(N)=O)OC3C1O2 (stereo not drawn) [compound 62]
12.5

----------
System: Proteus vulgaris HX-19
Experiment: Antibacterial activity, agar-dilution MIC, organism No. 21
Assay type: cell-based
Conditions: Proteus vulgaris, HX19; Organism No. 21, bouillon-agar; read-out: Minimum Inhibitory Concentration
Measurement Type: MIC (µg/mL)
Give a bare numeral; the unit µg/mL is implied.

Compound	Target Desc	Measured Result
[C-]#[N+]C12CC3(/C=C/C(=O)NC4=NCCS4)OC3C1O2 (stereo not shown)	Proteus vulgaris HX-19	3.13

Reported MIC for [C-]#[N+]C12CC3(/C=C/C(=O)N(C(=O)NC4CCCCC4)C4CCCCC4)OC3C1O2 (stereo not shown) : what is it?
0.1

Next up: [C-]#[N+]C12CC3(/C=C/C(=O)Nc4ccc(OC(C)C)cc4)OC3C1O2 (stereo not shown)
1.56

Next up: [C-]#[N+]C12CC3(/C=C/C(=O)OCC(C)C)OC3C1O2 (stereo not shown)
0.1

----------
Tested on: Enterobacter cloacae 963
Assay: Antibacterial activity, agar-dilution MIC, organism No. 24
Format: cell-based
Conditions: Enterobacter cloacae, 963; Organism No. 24, bouillon-agar; read-out: Minimum Inhibitory Concentration
Measurement Type: MIC (µg/mL)
Give a bare numeral; the unit µg/mL is implied.

Reported MIC for [C-]#[N+]C12CC3(/C=C/C(=O)OCc4ccccc4)OC3C1O2 (stereo not drawn) [Compound No. 10, benzyl β-substituted acrylate] : what is it?
50

Next up: [C-]#[N+]C12CC3(/C=C/C(=O)Nc4cccc(N)c4)OC3C1O2 (centres unmarked)
200

Next up: [C-]#[N+]C12CC3(/C=C/C(=O)Nc4ccc(C(=O)OC)cc4)OC3C1O2 (centres unmarked)
25

Next up: [C-]#[N+]C12CC3(/C=C/C(=O)Nc4cccc(O)c4)OC3C1O2 (centres unmarked)
100
